System: RXF 393 renal
Test: NCI-60 one-dose screen, 48 h (100 = growth as untreated, 0 = no growth, -100 = all killed)
Settings: 10 µM unless noted
This is part of a sample that, as a whole, favours compounds with a hit. Of some 83,000 tested, about 20% had one in any assay.
PARAMETER MEASURED: growth (%)
The response must be a number in % with no trailing unit.

Ask: What measured growth goes with CCOc1ccc(-n2nc(C(=O)Nc3ccccc3)nc2-c2cc(OC)c(OC)c(OC)c2)cc1 ?
Result: 69.2

Ask: One more molecule: CCN(CC)c1ccc2c(c1)Oc1nc(N)c(C#N)c(N)c1C2Sc1ccc(SC)cc1 (stereo not given)
Result: -67.6

Ask: One more molecule: O=C1c2cccc3cccc(c23)C(=O)N1CCCCCN1CCN(CCCCCOc2ccc(-c3nc4ccc(N5CCOCC5)cc4[nH]3)cc2)CC1
Result: -11.5

Ask: One more molecule: C=CC(COC(c1ccccc1)(c1ccccc1)c1ccccc1)N(CC)CC (stereo not given)
Result: -5.47

Ask: One more molecule: Cn1cc(C(=O)c2nc(-c3c[nH]c4ccc(F)cc34)no2)c2cc(F)ccc21
Result: 108

Ask: One more molecule: NC(=O)c1cc(Br)ccc1NC(=O)/C=C/c1ccccc1
Result: 39.3

Ask: One more molecule: N#C/C(=C\c1ccc(-c2ccc(Cl)c(Cl)c2)o1)c1nc(-c2ccco2)cs1
Result: 121

Ask: One more molecule: C=CCSSC1N=CNc2nc[nH]c21 (stereo not given)
Result: 42.5

Ask: One more molecule: NC1=C(Cl)C(=O)c2ccc(S(N)(=O)=O)cc2C1=O
Result: -99.2

Ask: One more molecule: C=C1c2nc3ccccc3n2C=C(c2cccc(Cl)c2)N1Cc1ccc(OC)cc1
Result: 4.81

Ask: One more molecule: O=C(CN1CCCCC1)Nc1ccc2oc(=O)ccc2c1
Result: 113

Ask: One more molecule: CCc1nc(N)nc(N)c1C#CC(C)c1ccc(-c2ccncc2)cc1Cl (stereo not given)
Result: 32.9

Ask: One more molecule: CCC([N+](=O)[O-])S(=O)(=O)c1ccc(C)cc1 (stereo not given)
Result: 97.1

Ask: One more molecule: COC(=O)c1ccc(Cn2cnc3c(N)ncnc32)cc1
Result: 102

Ask: One more molecule: OCCNc1nccc(N2CCN(c3ccnc4cc(Cl)ccc34)CC2)n1
Result: 77.1

Ask: One more molecule: CC/C=C\C[C@H](O)C/C=C1/C(=O)C=C[C@@]1(C)C/C=C\CCCC(=O)OC
Result: 115

Ask: One more molecule: C=C1c2nc3ccccc3n2C=C(c2ccc(Cl)cc2)N1Cc1ccc(OC)cc1
Result: 77.5

Ask: One more molecule: COc1cc2c(cc1-c1c(C)noc1C)ncc1nc(C3CCCCC3)n([C@H](C)COC(F)F)c12
Result: 52.6

Ask: One more molecule: OC(COc1cccc2ccccc12)CN1CCN(c2ccccc2Cl)CC1 (stereo not given)
Result: 158

Ask: One more molecule: COc1ccc(-c2nc3ccc(-c4nc5ccc(N6CCN(c7ccccc7)CC6)cc5[nH]4)cc3[nH]2)cc1OC
Result: -37.1

Ask: One more molecule: COc1cc2c(cc1O)CC[C@@H]1[C@@H]2CC[C@]2(C)[C@@H](OCCN(C)C)CC[C@@H]12
Result: 52.4

Ask: One more molecule: CCC(=O)c1ccc(Cl)s1
Result: 115

Ask: One more molecule: CC(C)CC1C(=O)N2CCC[C@H]2C2(O)O[C@](NC(=O)C3C=C4c5cccc6[nH]c(Br)c(c56)C[C@H]4N(C)C3)(C(C)C)C(=O)N12 (stereo not given in full)
Result: 36.8

Ask: One more molecule: C(=C\c1nccc2c1[nH]c1ccccc12)/c1ccccc1
Result: -44.6

Ask: One more molecule: CC1=C(O)C(=O)C(C(C#N)(C#N)C(C#N)C#N)C1 (stereo not given)
Result: 110

Ask: One more molecule: Clc1ccc2c(NCCCCNc3nc(N4CCCCC4)nc4ccccc34)ccnc2c1
Result: -62.8

Ask: One more molecule: Cn1nc(N)c2cc([C@@H]3Nc4ccc5[nH]ncc5c4[C@H]4C5CCC(C5)[C@@H]34)ccc21 (stereo not given in full)
Result: -11.1

Ask: One more molecule: COc1ccc(-c2nc(SCC(=O)Nc3ccc(C(=O)/C=C/c4ccc(Cl)cc4)cc3)[nH]c(=O)c2C#N)cc1
Result: 97.3

Ask: One more molecule: NCCNc1nc(Nc2ccc(-c3nc4ccccc4[nH]3)cc2)c2cn[nH]c2n1
Result: 43

Ask: One more molecule: NNCCc1ccc(NC(=O)CCCc2ccc(/C=C/C(=O)NO)cc2)cc1
Result: 63.6

Ask: One more molecule: O=C(CCl)Oc1ccc(-c2ccccc2)c(Br)c1
Result: 106

Ask: One more molecule: N#Cc1c(-c2ccc(Cl)cc2)nc(N/N=C/c2cccc(Br)c2)nc1N1CCOCC1
Result: 56.2

Ask: One more molecule: COc1cc(-c2nc3cc(Cl)c(Cl)cc3[nH]2)ccc1OCC(=O)N=Nc1c(O)[nH]c2ccccc12
Result: -75.9

Ask: One more molecule: O=C(/C=C/c1cccc(Cl)c1)c1ccc(O)c(CN2CCN(c3cc4c(cc3F)c(=O)c(C(=O)O)cn4C3CC3)CC2)c1
Result: 39.5

Ask: One more molecule: CCCCn1cnc2c(Sc3c([N+](=O)[O-])ncn3C)nc(N)nc21
Result: 102

Ask: One more molecule: O=C(N/N=C/c1c[nH]c2ccccc12)c1cc(-c2ccccc2)on1
Result: 97.8

Ask: One more molecule: CSc1nc(NCc2ccccc2)c(C#N)c(-c2cccc([N+](=O)[O-])c2)n1
Result: 102

Ask: One more molecule: COc1cc(-c2nn(-c3ccc(C(=O)O)cc3)cc2C(=O)O)ccc1O
Result: 91.5

Ask: One more molecule: CC1C(/C=N/Nc2ccccc2)C(C#N)(C#N)C1(C#N)C#N (stereo not given)
Result: 105

Ask: One more molecule: COc1cc(/C=C/C(=O)Nc2cccnc2Nc2ccc(F)cc2)cc(OC)c1OC
Result: 108

Reference source for all entries: PubChem BioAssay (NCI)
